# target-or-test-system: RELA (p65) subunit of heterodimer;p50 subunit (Homo sapiens;Homo sapiens, UniProt Q04206;P19838 1-307;7-356)
# Sequence (Q04206 1-307, chain 1 of 2): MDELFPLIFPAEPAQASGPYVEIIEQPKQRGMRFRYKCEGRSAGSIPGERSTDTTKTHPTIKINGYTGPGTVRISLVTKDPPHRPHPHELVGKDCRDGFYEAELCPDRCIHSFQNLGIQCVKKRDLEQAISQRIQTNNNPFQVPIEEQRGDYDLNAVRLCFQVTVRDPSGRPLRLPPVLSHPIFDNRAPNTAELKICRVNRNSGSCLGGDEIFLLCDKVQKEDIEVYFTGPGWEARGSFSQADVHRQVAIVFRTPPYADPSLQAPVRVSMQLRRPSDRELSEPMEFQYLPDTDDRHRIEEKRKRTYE
# Sequence (P19838 7-356, chain 2 of 2): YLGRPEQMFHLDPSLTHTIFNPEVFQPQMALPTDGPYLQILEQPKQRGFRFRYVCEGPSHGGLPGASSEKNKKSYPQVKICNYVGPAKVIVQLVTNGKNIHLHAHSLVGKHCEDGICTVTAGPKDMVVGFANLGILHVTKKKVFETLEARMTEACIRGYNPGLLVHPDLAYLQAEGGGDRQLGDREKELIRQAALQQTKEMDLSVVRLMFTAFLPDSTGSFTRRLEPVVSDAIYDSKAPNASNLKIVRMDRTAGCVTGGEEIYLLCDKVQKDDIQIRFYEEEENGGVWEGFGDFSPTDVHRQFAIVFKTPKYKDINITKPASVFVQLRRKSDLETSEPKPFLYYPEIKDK
# assay-notes: protein binding microarray; high values mean tight binding
# details: dsDNA, one strand shown
Documented binding signal across a set of sequences
// units = z-score; emit number, no label

Request: Please report binding signal for the following sequence: `GGAGGTACCCT`
Result: 0.0938

Request: Please report binding signal for the following sequence: `CAGTTTGCCCC`
Result: 1.17

Request: Please report binding signal for the following sequence: `CAGGAGGTCCT`
Result: -0.781

====

# target-or-test-system: p50p50 homodimer (Homo sapiens, UniProt P19838 7-356)
# Sequence (P19838 7-356): as the sequence (P19838 7-356, chain 2 of 2) above
# assay-notes: protein binding microarray; high values mean tight binding
# details: dsDNA, one strand shown
Checkbox rule: binding signal lower than 0.07 z-score = yes (1); binding signal not lower than 0.07 z-score = no (0).

Worked examples follow.
>>> label_class("GAATGATCCCC")
"no (0)"
>>> label_class("CAGTTTGCCCC")
"no (0)"

Request: Hello, I'm reviewing records and need to know if binding signal of `CGATTTCCCCT` is below 0.07 z-score. Could you check?
Result: no (0)

Request: Hello, I'm reviewing records and need to know if binding signal of `GAAAAGTCCCT` is below 0.07 z-score. Could you check?
Result: no (0)

Request: Hello, I'm reviewing records and need to know if binding signal of `AGGTAGGCCCT` is below 0.07 z-score. Could you check?
Result: yes (1)

Request: Hello, I'm reviewing records and need to know if binding signal of `CAATGACCCCC` is below 0.07 z-score. Could you check?
Result: no (0)

Request: Hello, I'm reviewing records and need to know if binding signal of `GAGAGCCCCCC` is below 0.07 z-score. Could you check?
Result: no (0)
